A short record of MIC values against S.aureus ATCC 29213 observed with S. aureus follows.
No end group written: not given here.
All answers are understood in µg/mL, so give the number only.

Look over these answered cases.
{"columns": ["sequenceText", "unitSymbol", "MIC values against S.aureus ATCC 29213"],
 "data": [
  ["RRLFNFLKRGSRLFNFLKR [Hit24]", "µg/mL", 12.5],
  ["RWVSMLLRRGSRVGYVIARR [Hit37]", "µg/mL", 100]
]}

Now take the following sequence into account.
Form field: MIC values against S.aureus ATCC 29213 recorded for RFFIGLSRRGSRIQAYLYRR [Hit50A] with S. aureus (enter value)
100

* * *

No end group written: not given here.
A short record of MIC in presence of 50% FBS observed with S. aureus follows.
All answers are understood in µg/mL, so give the number only.

Look over these answered cases.
{"columns": ["sequenceText", "unitSymbol", "MIC in presence of 50% FBS"],
 "data": [
  ["RFFIALSRRGSRVQAYLYRR [Hit50]", "µg/mL", 100],
  ["RFFIGLSRRGSRLFNFLKR [Hit57A]", "µg/mL", 100],
  ["RILLGLIRRGSRILLGLIRR [C30]", "µg/mL", 50]
]}

Now take the following sequence into account.
Form field: MIC in presence of 50% FBS recorded for RWVSMLLRRGSRWVSMLLRR [Hit1] with S. aureus (enter value)
25

* * *

# Test system: B. cereus
No end group written: not given here.
readout: MIC values against B.cereus ATCC (µg/mL)
All answers are understood in µg/mL, so give the number only.

{"columns": ["sequenceText", "unitSymbol", "MIC values against B.cereus ATCC"],
 "data": [
  ["RWVSMLLRRGSRWVSMLLRR [Hit1]", "µg/mL", 6],
  ["RRWVSMLLRRGSRWVSMLLRR [Hit14]", "µg/mL", 100]
]}

Now take the following sequence into account.
Form field: MIC values against B.cereus ATCC recorded for RFFIGLSRRGSRIQAYLYRR [Hit50A] with B. cereus (enter value)
50

* * *

# System: B. cereus
No end group written: not given here.
readout: MIC values against B.cereus ATCC

Look over these answered cases.
{"columns": ["sequenceText", "MIC values against B.cereus ATCC"],
 "data": [
  ["RWVSMLLRRGSRVGYVIARR [Hit37]", ">100 µg/mL"],
  ["RLFNFLKRGSRLFNFLKR [C29/Hit11]", "6 to 12.5 µg/mL"]
]}

Any idea what its MIC values against B.cereus ATCC is? The sequence is RFFIALSRRGSRVQAYLYRR [Hit50]
>100 µg/mL
